Entry source: ChEMBL document CHEMBL1687734

- experiment-notes: Drug concentration in Epithelial lining fluid of healthy human at 500 mg, po administered as single dose after 24 hrs
- Format: ADME, organism-based
- assay-setup: read-out: Drug uptake

# smiles-representation, concentration at 24 h / ng/mL
rows = [
    ("CC[C@H]1OC(=O)[C@H](C)[C@@H](O[C@H]2C[C@@](C)(OC)[C@@H](O)[C@H](C)O2)[C@H](C)[C@@H](O[C@@H]2O[C@H](C)C[C@H](N(C)C)[C@H]2O)[C@](C)(O)C[C@@H](C)CN(C)[C@H](C)[C@@H](O)[C@]1(C)O", 90),
]

====

- experiment-notes: Half life in healthy human plasma at 200 mg, po once daily for 3 days measured after 3 days
- Assay type: ADME, organism-based

# smiles-representation, half-life
data = [
    ("CC[C@H]1OC(=O)[C@H](C)C(=O)[C@H](C)[C@@H](O[C@@H]2O[C@H](C)C[C@H](N(C)C)[C@H]2O)[C@@]2(C)C[C@@H](C)/C(=N\\C(C)=O)[C@H](C)[C@@H](OC/C(=N\\OCc3ccc(-n4cccn4)nc3)CO2)[C@]1(C)O", "17.4 h"),
]

====

- experiment-notes: Tmax in 8 hrs fasted healthy human plasma at 200 mg, po administered as single dose of two-100 mg capsules
- Format: ADME, organism-based
readout-type: Tmax (h)

# compound, readout-type, test-result
measured = [
    ("CC[C@H]1OC(=O)[C@H](C)C(=O)[C@H](C)[C@@H](O[C@@H]2O[C@H](C)C[C@H](N(C)C)[C@H]2O)[C@@]2(C)C[C@@H](C)/C(=N\\C(C)=O)[C@H](C)[C@@H](OC/C(=N\\OCc3ccc(-n4cccn4)nc3)CO2)[C@]1(C)O [MODITHROMYCIN]", "Tmax", 3.5),
]

====

- experiment-notes: AUC (0 to last) in 8 hrs fasted healthy human plasma at 200 mg, po administered as single dose of suspension
- Format: ADME, organism-based
- Parameters: dose 200 mg, route oral, time 0 - last

# smiles-representation, unit-abbrev, AUC(0-t)
records = [
    ("CC[C@H]1OC(=O)[C@H](C)C(=O)[C@H](C)[C@@H](O[C@@H]2O[C@H](C)C[C@H](N(C)C)[C@H]2O)[C@@]2(C)C[C@@H](C)/C(=N\\C(C)=O)[C@H](C)[C@@H](OC/C(=N\\OCc3ccc(-n4cccn4)nc3)CO2)[C@]1(C)O", "ng·h/mL", 8270),
]

====

- experiment-notes: Cmax in high-fat fed healthy human plasma at 200 mg, po administered as single dose of two-100 mg capsules
- Assay type: ADME, organism-based
- Parameters: dose 200 mg, route oral

# compound, unit-abbrev, Cmax
data = [
    ("CC[C@H]1OC(=O)[C@H](C)C(=O)[C@H](C)[C@@H](O[C@@H]2O[C@H](C)C[C@H](N(C)C)[C@H]2O)[C@@]2(C)C[C@@H](C)/C(=N\\C(C)=O)[C@H](C)[C@@H](OC/C(=N\\OCc3ccc(-n4cccn4)nc3)CO2)[C@]1(C)O [MODITHROMYCIN]", "ng/mL", 394),
]

====

- experiment-notes: AUC (0 to infinity) in high-fat fed healthy human plasma at 200 mg, po administered as single dose of two-100 mg capsules
- Type: ADME, organism-based
- Set-up: dose 200 mg, route oral, time infinity

# smiles-representation, unit-abbrev, AUC(0-inf)
data = [
    ("CC[C@H]1OC(=O)[C@H](C)C(=O)[C@H](C)[C@@H](O[C@@H]2O[C@H](C)C[C@H](N(C)C)[C@H]2O)[C@@]2(C)C[C@@H](C)/C(=N\\C(C)=O)[C@H](C)[C@@H](OC/C(=N\\OCc3ccc(-n4cccn4)nc3)CO2)[C@]1(C)O", "ng·h/mL", 9040),
]
